# assay target: HLA-B*53:01
# test name: IEDB peptide-MHC binding, purified MHC/competitive/radioactivity; filed as Kd, often an IC50 or EC50 that approximates it; bounds were set here for any values at or beyond the usual limits of such assays
# measurement setup: source organism: Dengue virus 2 Jamaica/1409/1983
Kd values for the sequences below.

Consider the following illustrative entries.
FAGPVSQHNY	435 nM
LPIRYQTPAI	13.5 nM
IPITAAAWY	26.6 nM

Hello, I am looking for reported Kd with HLA-B*53:01 for NPITLTAAL . Could you help?
377 nM

---

Reported pKd values are given for each entry in this list.
# assay target: HLA-B*15:01
# test name: IEDB peptide-MHC binding, purified MHC/direct/fluorescence; filed as Kd, often an IC50 or EC50 that approximates it; bounds were set here for any values at or beyond the usual limits of such assays
# measurement setup: source organism: Encephalitozoon cuniculi GB-M1
pKd: −log10 of the molar value.

Which pKd is reported with HLA-B*15:01 for this entry: HPYVFCALL ?
≤ 4.70

Request - read-out pKd | tested on HLA-B*15:01 | sequence SPLPITLKY
≤ 4.70

---

# assay target: HLA-A*02:06
# test name: IEDB peptide-MHC binding, purified MHC/competitive/radioactivity; filed as Kd, often an IC50 or EC50 that approximates it; bounds were set here for any values at or beyond the usual limits of such assays
# measurement setup: source organism: Dengue virus 3 Singapore/8120/1995
reported property: Kd (nM)
Report the figure in nM without appending any unit label.

Form: Entry = MIAGVLFTFV | System = HLA-A*02:06 | Kd = ____
2.44

---

# assay target: HLA-A*02:01
# test name: IEDB peptide-MHC binding, purified MHC/competitive/radioactivity; filed as Kd, often an IC50 or EC50 that approximates it; bounds were set here for any values at or beyond the usual limits of such assays
# measurement setup: source organism: Dengue virus 1 Nauru/West Pac/1974
reported property: pKd
// pKd: -log10(molar conc.)

# query: pKd of entry MLDVDLHPA
7.12

---

# assay target: HLA-A*31:01
# test name: IEDB peptide-MHC binding, purified MHC/direct/fluorescence; filed as Kd, often an IC50 or EC50 that approximates it; bounds were set here for any values at or beyond the usual limits of such assays
# measurement setup: source organism: Bacillus anthracis
reported property: Kd

TPRIANRLL	≥ 20 µM

Note: attention shifts to another entry.
Any idea what its Kd is? The sequence is PTDYAKPQY
≥ 20 µM

---

# assay target: HLA-B*08:01
# test name: IEDB peptide-MHC binding, purified MHC/direct/fluorescence; filed as Kd, often an IC50 or EC50 that approximates it; bounds were set here for any values at or beyond the usual limits of such assays
# measurement setup: source organism: Mycobacterium tuberculosis variant bovis
reported property: pKd
Please report pKd as the negative decimal logarithm of the molar concentration, giving only the number.

What value of pKd has been recorded for this entry: TPREAPYEL
5.15

---

# assay target: HLA-A*02:19
# test name: IEDB peptide-MHC binding, purified MHC/direct/fluorescence; filed as Kd, often an IC50 or EC50 that approximates it; bounds were set here for any values at or beyond the usual limits of such assays
# measurement setup: source organism: Influenza A virus (A/Taiwan/2/2006(H1N1))
reported property: pKd
Hey, just a heads up that pKd is the negative log base 10 of the concentration in molar.

Consider the sequence shown here: CFMYSDFHF What is its recorded pKd?
6.57
